Target: MELK (Homo sapiens, UniProt Q14680)
Sequence (Q14680 whole entry, looked up): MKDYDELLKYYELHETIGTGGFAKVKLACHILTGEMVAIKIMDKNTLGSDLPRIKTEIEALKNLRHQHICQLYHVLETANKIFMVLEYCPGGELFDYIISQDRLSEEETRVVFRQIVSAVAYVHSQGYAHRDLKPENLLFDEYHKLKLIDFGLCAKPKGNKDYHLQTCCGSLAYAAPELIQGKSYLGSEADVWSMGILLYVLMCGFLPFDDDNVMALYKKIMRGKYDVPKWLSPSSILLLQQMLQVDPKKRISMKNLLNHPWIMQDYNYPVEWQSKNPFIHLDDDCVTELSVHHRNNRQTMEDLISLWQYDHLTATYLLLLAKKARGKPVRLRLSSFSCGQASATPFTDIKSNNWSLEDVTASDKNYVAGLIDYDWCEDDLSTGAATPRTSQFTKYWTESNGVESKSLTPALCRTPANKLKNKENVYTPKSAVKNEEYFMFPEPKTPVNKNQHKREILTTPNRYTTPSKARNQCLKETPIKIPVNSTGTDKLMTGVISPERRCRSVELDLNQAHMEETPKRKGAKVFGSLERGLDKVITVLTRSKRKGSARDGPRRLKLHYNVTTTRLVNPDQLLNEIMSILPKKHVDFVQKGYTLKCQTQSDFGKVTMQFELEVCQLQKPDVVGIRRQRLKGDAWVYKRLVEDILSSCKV
Test: Kinase assay: MELK activity, phosphorylation of FITC-labeled histone H3 peptide measured by IMAP fluorescence polarization
Type: biochemical
Conditions: hydrochloride; read-out: IC50 (μM) (kinase assay)
Structures can show the parent of a compound that is named as a salt.
endpoint.label: IC50 (µM)
Quick note: give the figure in µM, leave out the unit.

molecule="NCc1ccc(Nc2c(C(=O)C3CC3)cnc3ccc(-c4cc(Cl)c(O)c(Cl)c4)cc23)cc1 [Example 508, hydrochloride]" target_of_assay="MELK (Homo sapiens, UniProt Q14680)" endpoint_label=IC50 reported=0.0017

The recorded IC50 for entry CN(C)CCNc1ccc(Nc2c(C(=O)C3CC3)cnc3ccc(-c4cc(Cl)c(O)c(Cl)c4)cc23)cn1 [Example 748, hydrochloride] equals 0.0026

What the record says about N[C@H]1CCCN(c2ccc(Nc3c(C(=O)C4CC4)cnc4ccc(-c5cc(Cl)c(O)c(Cl)c5)cc34)cn2)C1 [Example 647, hydrochloride] : IC50 is 0.0015

Briefly, IC50 measured for O=C(c1cnc2ccc(-c3cc(F)c(O)c(Cl)c3)cc2c1N[C@H]1CC[C@H](CN2CCCC2)CC1)C1CC1 [Example 588, hydrochloride] : 0.0037

What the record says about CC(C)(N)c1ccc(Nc2c(C(=O)C3CC3)cnc3ccc(-c4cc(Cl)c(O)c(Cl)c4)cc23)cc1 [Example 601, hydrochloride] : IC50 is 0.0014

Quick note, IC50 for CC(=O)c1cnc2ccc(-c3cc(Cl)c(O)c(Cl)c3)cc2c1Nc1ccc(CN2CCN(C)CC2)cc1 [Example 655, hydrochloride] landed at 0.0029
